Reference source for all entries: ChEMBL document CHEMBL1153124

assay: Solubility in water; assay type: physicochemical
readout: solubility (µg/mL)
Provide the reading as a plain figure in µg/mL.

INPUT: May I ask what solubility has been recorded for COc1cnc(-c2ccc(Cn3c(CC(C)(C)C(=O)O)c(SC(C)(C)C)c4cc(OC[C@@H]5Cc6ccccc6N5C(C)=O)ccc43)cc2)nc1 ?
OUTPUT: 10000

----------
target: Arachidonate 5-lipoxygenase-activating protein (Homo sapiens, UniProt P20292); assay: Binding affinity to FLAP in human PMN derived membrane
Sequence (P20292 whole entry): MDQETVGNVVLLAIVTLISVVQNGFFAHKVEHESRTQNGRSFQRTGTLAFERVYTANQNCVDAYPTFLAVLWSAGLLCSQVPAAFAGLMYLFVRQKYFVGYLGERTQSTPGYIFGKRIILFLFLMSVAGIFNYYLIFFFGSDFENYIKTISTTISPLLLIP
API: label(entry) gives yes if the entry's IC50 is strictly smaller than 40 nM; on equality or larger values it gives no.

Previously resolved entries follow.
CC(=O)N1c2ccccc2C[C@H]1COc1ccc2c(c1)c(C(=O)c1ccccc1)c(CC(C)(C)C(=O)O)n2Cc1ccc(Cl)cc1	no
CC(=O)N1c2ccccc2C[C@H]1COc1ccc2c(c1)c(S(=O)(=O)C(C)(C)C)c(CC(C)(C)C(=O)O)n2Cc1ccc(Cl)cc1	yes
CC(=O)N1c2ccccc2C[C@H]1COc1ccc2c(c1)c(SC(C)(C)C)c(CC(C)(C)C(=O)O)n2Cc1ccc(-c2ccc(F)cn2)cc1	yes
CC(C)(C)OC(=O)N1c2ccccc2C[C@H]1COc1ccc2c(c1)c(SC(C)(C)C)c(CC(C)(C)C(=O)O)n2Cc1ccc(Cl)cc1	no
CC(C)(C)Sc1c(CC(C)(C)C(=O)O)n(Cc2ccc(Cl)cc2)c2ccc(OC[C@@H]3CCCN3C(=O)c3ccccc3)cc12	no

INPUT: Record CC(=O)N1c2ccccc2C[C@H]1COc1ccc2c(c1)c(CC(C)C)c(CC(C)(C)C(=O)O)n2Cc1ccc(Cl)cc1 : is its IC50 strictly below 40 nM?
OUTPUT: yes
